Values were extracted from PubChem BioAssay AID1421.

Target: Prostaglandin E2 receptor EP2 subtype (Homo sapiens)
Assay: compounds shifting PGE2 potency at EP2 – cell-based, human EP2, PGE2 EC50 shift, dose response (AID 1421)
Conditions: EP2-expressing cells, PGE2 EC50 shift by compound; at 20 µM
Among all 1,300 compounds or so, about 140 (11%) were called active. The list is a sample of the results. Potency and affinity values are given separately.
quantity name: PGE2 EC50 with compound

Input line: What measured PGE2 EC50 with compound goes with COC(=O)c1c(NC(=O)CSc2nnc(-c3cccnc3)n2Cc2ccco2)sc(C)c1C ?
Output line: 0.69 nM (inactive)

Input line: What measured PGE2 EC50 with compound goes with CCOC(=O)C1=C(C)N(C)C(C)=C(C(=O)OCC)C1c1ccsc1 ?
Output line: 0.71 nM (inactive)

Input line: What measured PGE2 EC50 with compound goes with O=C(CSc1nnc(-c2cc3ccccc3cc2O)n1Cc1ccco1)c1ccc(F)cc1 ?
Output line: 0.83 nM (inactive)

Input line: What measured PGE2 EC50 with compound goes with Cc1ccc(S(=O)(=O)NCC(=O)OCN2C(=O)c3ccccc3C2=O)cc1 ?
Output line: 2.7 nM (inactive)

Input line: What measured PGE2 EC50 with compound goes with CC(OC(=O)c1oc2ccccc2c1COc1ccccc1)C(=O)NC(N)=O (stereo not drawn) ?
Output line: 0.23 nM (inactive)

Input line: What measured PGE2 EC50 with compound goes with COc1ccc(C(=O)Nc2ccccc2N2CCCCC2)cc1[N+](=O)[O-] ?
Output line: 0.44 nM (inactive)

Input line: What measured PGE2 EC50 with compound goes with CCOC(=O)CNC(=O)c1ccc2c(c1)OCCO2 ?
Output line: 0.46 nM (inactive)

Input line: What measured PGE2 EC50 with compound goes with COc1cc(C)c(NC(c2ccccc2)c2ccccc2)cc1OC ?
Output line: 0.74 nM (inactive)

Input line: What measured PGE2 EC50 with compound goes with CCOC(=O)c1c(-c2ccc(C)cc2)csc1NC(=O)c1ccc(N2C(=O)CCC2=O)cc1 ?
Output line: 0.29 nM (inactive)

Input line: What measured PGE2 EC50 with compound goes with Cc1ccc2nc(-c3ccncc3)cc(-c3ccccc3)c2c1 ?
Output line: 0.17 nM (inactive)

Input line: What measured PGE2 EC50 with compound goes with C=CCCC1(C)C(=O)N(c2ccccc2)c2ccccc21 (stereo not drawn) ?
Output line: 0.41 nM (inactive)

Input line: What measured PGE2 EC50 with compound goes with C1=C(c2ccccc2)Nc2ccccc2N=C1c1ccccc1 ?
Output line: 0.4 nM (inactive)

Input line: What measured PGE2 EC50 with compound goes with Cc1cccc(N=N/C(=C\O)C(=O)c2ccc(Br)cc2)c1 ?
Output line: 0.18 nM (inactive)

Input line: What measured PGE2 EC50 with compound goes with CCOc1ccc(OCC)c(NC(=O)CN2CCN(c3ccc(C)cc3C)CC2)c1 ?
Output line: 0.77 nM (inactive)

Input line: What measured PGE2 EC50 with compound goes with CSc1nnc2c3ccccc3c3ccccc3c2n1 ?
Output line: 0.24 nM (inactive)

Input line: What measured PGE2 EC50 with compound goes with CCOC(=O)c1oc2ccccc2c1NC(=O)c1cccc(OC)c1OC ?
Output line: 0.43 nM (inactive)

Input line: What measured PGE2 EC50 with compound goes with CCOc1nc(C)cc(C)c1S(=O)(=O)c1ccc(Cl)cc1 ?
Output line: 0.21 nM (inactive)

Input line: What measured PGE2 EC50 with compound goes with Cc1occc1-c1nnc(SCC(=O)Nc2ccccc2N2CCCCC2)n1C ?
Output line: 1.17 nM (inactive)
